Overview of reported IC50 across a group of molecules:
Test system: human lung cancer strain NCI-H441
Format: cell-based
Method: A test compound was dispensed into a U-bottom 384-well plate as 40 nL serially diluted dimethyl sulfoxide solutions using a liquid handler Echo (LABCYTE). […] This cell suspension was dispensed in an amount of 40 µL per well into a plate containing the test compound, and cultured at 37°C in a 5% carbon dioxide gas incubator. Four days later, 20 µL of CellTiter-Glo (registered trademark) (Promega) was added to each well and […] was measured. […]
*1 amine or outer side, *2 acyl side, *3 side chain or, on linkers, in order; H or OH if unused. Where a SMILES comes first, the peptide text is derived from it. Bridges are numbered along the chain shown (N, C = ends). [ ]: non-standard residue; d: D form. The star is where a group is joined. hPhe(3-Cl-4-CF3) = N[C@@H](CCc1ccc(C(F)(F)F)c(Cl)c1)C(=O)O; X43 = COCCCN([C@@H](Cc1ccc(C(F)(F)F)cc1)C(=O)[*:2])[*:1]; NPrPhe(4-CF3) = CCCN[C@@H](Cc1ccc(C(F)(F)F)cc1)C(=O)O; NMeGly(cPent) = CN[C@H](C(=O)O)C1CCCC1; NMeD = CN[C@@H](CC(=O)O)C(=O)O; NMeL = CN[C@@H](CC(C)C)C(=O)O; Morpholide = C1CN(*)CCO1; NMeA = CN[C@@H](C)C(=O)O; Ac5c = NC1(C(=O)O)CCCC1; Aze = O=C(O)[C@@H]1CCN1; Sar = CNCC(=O)O
Quick note: unit goes after the number.

Here's what some known entries look like.
CCO[C@@H]1C[C@H]2C(=O)NC3(CC(C)(C)C3)C(=O)N(C)[C@@H](C3CCCC3)C(=O)N(C)[C@H](C(=O)N(C)CC)CC(=O)N(C)[C@@H](CC(C)C)C(=O)N[C@@H]([C@@H](C)CC)C(=O)N(C)CC(=O)N(C)[C@H]3C/C=C\CCN(C3=O)[C@@H](Cc3ccc(C(F)F)cc3)C(=O)N(C)CC(=O)N[C@@H](CCc3ccc(C4CC4)c(Cl)c3)C(=O)N2C1 :: 62.5 nM
CCCN(C)C(=O)[C@@H]1CC(=O)N(C)[C@@H](C2CC2)C(=O)N[C@@H]([C@@H](C)CC)C(=O)N(C)CC(=O)N(C)[C@H]2C/C=C\CCN(C2=O)[C@@H](Cc2ccc(C(F)(F)F)cc2)C(=O)N(C)CC(=O)N[C@@H](CCc2ccc(C(F)(F)F)c(OC)c2)C(=O)N2C[C@H](OCC)C[C@H]2C(=O)NC2(CC(C)(C)C2)C(=O)N(C)[C@@H](C2CCCC2)C(=O)N1C :: 20.2 nM
CC[C@H](C)[C@@H]1NC(=O)[C@H](CC(C)C)N(C)C(=O)C[C@@H](C(=O)N2CCOCC2)N(C)C(=O)[C@H](C2CCCC2)N(C)C(=O)C2(CCCC2)NC(=O)[C@@H]2CCCN2C(=O)[C@H](CCc2ccc(C(F)(F)F)c(Cl)c2)NC(=O)CN(C)C(=O)[C@H](Cc2ccc(C(F)(F)F)cc2)N2CC/C=C\C[C@@H](C2=O)N(C)C(=O)CN(C)C1=O :: 26.3 nM
CCCN1C(=O)[C@@H]2CCN2C(=O)[C@H](C)N(C)C(=O)[C@H]([C@@H](C)CC)NC(=O)[C@H](CC(C)C)N(C)C(=O)C[C@@H](C(=O)N2CCOCC2)N(C)C(=O)[C@H](C2CCCC2)N(C)C(=O)C2(CCCC2)NC(=O)[C@@H]2CCN2C(=O)[C@H](CCc2ccc(C(F)(F)F)c(Cl)c2)NC(=O)CN(C)C(=O)[C@@H]1Cc1ccc(C(F)(F)F)cc1 [PP0281] ([NMeL]I[NMeA][Aze][NPrPhe(4-CF3)][Sar][hPhe(3-Cl-4-CF3)][Aze][Ac5c][NMeGly(cPent)][NMeD]-Morpholide; lactam N-11) :: 7.8 nM

input: Output IC50 of CC[C@H](C)[C@@H]1NC(=O)[C@H](CC(C)C)N(C)C(=O)C[C@@H](C(=O)N2CCOCC2)N(C)C(=O)[C@H](C2CCCC2)N(C)C(=O)C2(CCCC2)NC(=O)[C@@H]2CCCN2C(=O)[C@H](CCc2ccc(C(F)(F)F)c(Cl)c2)NC(=O)CN(C)C(=O)[C@H](Cc2ccc(C(F)(F)F)cc2)N(CCCOC)C(=O)CN(C)C(=O)CN(C)C1=O [PP0133] ([NMeL]I[Sar][Sar][X43][Sar][hPhe(3-Cl-4-CF3)]P[Ac5c][NMeGly(cPent)][NMeD]-Morpholide; lactam N-11)
output: 6.4 nM
